Target: Human Cav2.2 channels (Homo sapiens, UniProt Q00975)
Construct: expressed in transfected cells
Sequence (Q00975 whole entry): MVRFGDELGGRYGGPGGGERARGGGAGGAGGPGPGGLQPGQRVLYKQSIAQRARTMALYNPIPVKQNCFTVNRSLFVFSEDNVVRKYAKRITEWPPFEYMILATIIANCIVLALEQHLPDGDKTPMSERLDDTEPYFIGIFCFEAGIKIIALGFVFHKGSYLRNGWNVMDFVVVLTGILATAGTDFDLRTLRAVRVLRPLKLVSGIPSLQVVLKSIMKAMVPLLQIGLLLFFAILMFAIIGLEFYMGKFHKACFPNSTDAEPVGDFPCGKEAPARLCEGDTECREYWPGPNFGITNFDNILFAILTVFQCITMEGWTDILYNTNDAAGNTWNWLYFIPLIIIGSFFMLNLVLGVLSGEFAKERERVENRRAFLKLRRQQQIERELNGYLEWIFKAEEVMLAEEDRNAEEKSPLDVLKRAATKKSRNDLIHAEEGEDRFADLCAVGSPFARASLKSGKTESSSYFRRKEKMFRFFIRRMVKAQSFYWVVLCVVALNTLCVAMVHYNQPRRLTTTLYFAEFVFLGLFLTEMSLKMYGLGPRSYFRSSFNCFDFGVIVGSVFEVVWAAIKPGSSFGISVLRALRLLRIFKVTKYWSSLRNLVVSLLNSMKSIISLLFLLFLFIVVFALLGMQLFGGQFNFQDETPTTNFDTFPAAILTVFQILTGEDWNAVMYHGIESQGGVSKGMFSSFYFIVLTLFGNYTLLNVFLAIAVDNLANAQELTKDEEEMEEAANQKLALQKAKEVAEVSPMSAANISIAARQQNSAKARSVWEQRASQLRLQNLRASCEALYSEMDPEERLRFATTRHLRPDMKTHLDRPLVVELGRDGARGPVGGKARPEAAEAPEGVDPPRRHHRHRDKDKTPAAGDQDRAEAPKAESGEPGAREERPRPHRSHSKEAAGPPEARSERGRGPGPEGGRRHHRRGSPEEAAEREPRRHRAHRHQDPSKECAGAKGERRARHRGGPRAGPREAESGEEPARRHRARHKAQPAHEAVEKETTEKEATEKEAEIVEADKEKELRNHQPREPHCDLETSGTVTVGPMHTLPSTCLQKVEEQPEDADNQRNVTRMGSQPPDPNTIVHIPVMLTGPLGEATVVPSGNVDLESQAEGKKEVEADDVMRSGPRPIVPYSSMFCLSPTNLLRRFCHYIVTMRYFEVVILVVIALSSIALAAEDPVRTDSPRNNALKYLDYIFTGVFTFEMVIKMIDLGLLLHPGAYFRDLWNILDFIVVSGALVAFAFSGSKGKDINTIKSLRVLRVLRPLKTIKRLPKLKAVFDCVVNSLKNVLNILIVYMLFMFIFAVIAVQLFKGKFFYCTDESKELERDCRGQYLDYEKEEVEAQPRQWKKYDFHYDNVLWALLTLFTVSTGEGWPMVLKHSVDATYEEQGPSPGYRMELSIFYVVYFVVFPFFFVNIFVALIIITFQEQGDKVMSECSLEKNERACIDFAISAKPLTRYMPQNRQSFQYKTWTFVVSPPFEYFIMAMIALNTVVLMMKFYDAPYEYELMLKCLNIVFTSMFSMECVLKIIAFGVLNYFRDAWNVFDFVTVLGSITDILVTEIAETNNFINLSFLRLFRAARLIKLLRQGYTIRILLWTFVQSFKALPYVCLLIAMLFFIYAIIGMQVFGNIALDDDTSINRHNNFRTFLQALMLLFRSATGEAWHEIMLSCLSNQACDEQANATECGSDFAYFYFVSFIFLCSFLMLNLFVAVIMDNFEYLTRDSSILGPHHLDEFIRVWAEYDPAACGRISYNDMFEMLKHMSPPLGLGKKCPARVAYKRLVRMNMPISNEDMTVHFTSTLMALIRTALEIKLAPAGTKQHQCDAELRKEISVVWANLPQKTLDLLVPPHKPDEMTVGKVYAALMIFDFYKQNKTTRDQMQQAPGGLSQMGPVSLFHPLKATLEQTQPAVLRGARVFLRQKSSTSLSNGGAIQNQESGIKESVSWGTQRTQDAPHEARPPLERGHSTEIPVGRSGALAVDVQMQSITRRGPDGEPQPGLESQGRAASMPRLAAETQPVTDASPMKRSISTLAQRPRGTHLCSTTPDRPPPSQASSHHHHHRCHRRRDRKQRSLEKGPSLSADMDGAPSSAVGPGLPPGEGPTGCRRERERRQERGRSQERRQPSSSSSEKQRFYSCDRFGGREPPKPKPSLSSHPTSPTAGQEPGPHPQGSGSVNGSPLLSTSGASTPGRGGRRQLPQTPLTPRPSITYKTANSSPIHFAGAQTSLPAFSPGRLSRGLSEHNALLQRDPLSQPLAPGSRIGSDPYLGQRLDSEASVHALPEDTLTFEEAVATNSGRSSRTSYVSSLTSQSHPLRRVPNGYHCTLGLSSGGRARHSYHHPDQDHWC
Sequence (P54289 25-1103 partner): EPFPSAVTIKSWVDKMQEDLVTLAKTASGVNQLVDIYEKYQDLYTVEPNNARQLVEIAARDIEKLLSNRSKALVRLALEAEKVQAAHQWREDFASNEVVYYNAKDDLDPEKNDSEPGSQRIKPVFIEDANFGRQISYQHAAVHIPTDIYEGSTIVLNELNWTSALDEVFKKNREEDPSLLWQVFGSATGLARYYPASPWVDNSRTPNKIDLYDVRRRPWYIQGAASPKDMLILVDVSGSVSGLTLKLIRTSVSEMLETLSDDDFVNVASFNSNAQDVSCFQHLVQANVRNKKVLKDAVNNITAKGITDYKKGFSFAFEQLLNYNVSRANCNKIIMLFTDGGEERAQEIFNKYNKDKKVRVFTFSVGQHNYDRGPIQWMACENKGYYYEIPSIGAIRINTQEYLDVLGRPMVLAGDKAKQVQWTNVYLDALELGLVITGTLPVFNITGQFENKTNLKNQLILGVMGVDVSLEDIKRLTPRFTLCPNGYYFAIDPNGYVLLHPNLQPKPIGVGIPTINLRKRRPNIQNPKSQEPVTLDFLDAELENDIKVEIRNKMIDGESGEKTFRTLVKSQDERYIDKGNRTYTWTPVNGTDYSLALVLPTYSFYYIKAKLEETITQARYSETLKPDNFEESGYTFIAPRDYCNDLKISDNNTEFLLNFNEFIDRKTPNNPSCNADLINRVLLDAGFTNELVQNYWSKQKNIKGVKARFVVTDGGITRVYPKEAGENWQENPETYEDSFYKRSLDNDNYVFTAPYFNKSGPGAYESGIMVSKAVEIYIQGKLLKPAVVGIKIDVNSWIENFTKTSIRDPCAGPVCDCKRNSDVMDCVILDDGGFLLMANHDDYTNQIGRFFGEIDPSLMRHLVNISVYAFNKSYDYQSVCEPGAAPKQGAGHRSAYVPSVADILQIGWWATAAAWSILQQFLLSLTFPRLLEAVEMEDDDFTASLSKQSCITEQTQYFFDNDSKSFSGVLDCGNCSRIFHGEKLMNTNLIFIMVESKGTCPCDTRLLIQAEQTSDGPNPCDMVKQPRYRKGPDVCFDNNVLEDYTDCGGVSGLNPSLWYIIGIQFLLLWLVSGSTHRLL
Sequence (P54284 whole entry partner): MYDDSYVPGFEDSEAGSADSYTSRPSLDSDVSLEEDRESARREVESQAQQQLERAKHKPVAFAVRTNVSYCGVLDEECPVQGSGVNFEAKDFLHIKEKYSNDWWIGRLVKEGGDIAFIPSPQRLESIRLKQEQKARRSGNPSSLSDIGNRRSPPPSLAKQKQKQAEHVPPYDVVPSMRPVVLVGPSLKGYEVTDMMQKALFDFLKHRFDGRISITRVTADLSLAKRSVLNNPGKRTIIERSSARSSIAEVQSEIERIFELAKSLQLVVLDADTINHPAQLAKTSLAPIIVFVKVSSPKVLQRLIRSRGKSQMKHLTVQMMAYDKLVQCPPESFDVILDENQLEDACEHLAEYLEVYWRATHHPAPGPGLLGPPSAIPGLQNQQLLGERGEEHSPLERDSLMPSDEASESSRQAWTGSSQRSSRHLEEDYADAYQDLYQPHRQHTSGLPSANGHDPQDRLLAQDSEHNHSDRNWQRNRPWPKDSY
Assay: Fluorescent assay for Cav2.2 channels using potassium depolarization to initiate channel opening
Assay type: cell-based
Settings: 30 μM compound; read-out: Cav 2.2 Activity % Inh at 30 μM
Quantity Name: inhibition at 30 µM (%)

[1] CC(C)(C)c1cc(C(=O)NC2(C(=O)NCc3ccccc3)CCCCC2)cc(C(C)(C)C)n1 [Compound 56]
[2] COc1c(C(C)(C)C)cc(C(=O)NC2(C(=O)NCc3ccc(N(C)C)cc3)CCCCC2)cc1C(C)(C)C [Compound 84]
[3] CC(C)(C#N)c1cccc(C(=O)NC2(C(=O)NCc3ccccc3)CCCCC2)c1 [Compound 123]
Reorder the list: decreasing inhibition at 30 µM. To answer, write out the labels according to the requested order.
1, 2, 3
(1: 92.6%, 2: 53.5%, 3: 27.3%)

----------
Biological target: Human Cav2.2 channels (Homo sapiens, UniProt Q00975)
Construct: expressed in transfected cells
Experiment: Fluorescent assay for Cav2.2 channels using potassium depolarization to initiate channel opening
Assay type: cell-based
Settings: 10 μM compound; read-out: Cav 2.2 Activity % Inh at 10 μM
Quantity Name: inhibition at 10 µM (%)

{"columns": ["Line Notation", "inhibition at 10 µM (%)"],
 "data": [
  ["CC(C)(C)c1cc(C(=O)NC2(C(=O)N3CCOCC3)CCCC2)cc(C(C)(C)C)n1", 96.6],
  ["CC(C)(C)c1cc(C(=O)NC2(C(=O)NCc3ccccc3)CCCCC2)cc(C(C)(C)C#N)c1", 89.8]
]}

[1] COc1ccc(C(=O)NC2(C(=O)NCc3cc(C(C)(C)C)c(OC)c(C(C)(C)C)c3)CCCCC2)cc1
[2] CC(C)(C)c1cc(C(=O)NC2(C(=O)Nc3ccccn3)CC2)cc(C(C)(C)C)c1O
Could you point out whether the larger inhibition at 10 µM belongs to 1 or to 2 ? Give the label of your selection.
1

----------
Target: Human Cav2.2 channels (Homo sapiens, UniProt Q00975)
Construct: expressed in transfected cells
Assay: Fluorescent assay for Cav2.2 channels using potassium depolarization to initiate channel opening
Type: cell-based
Settings: 30 μM compound; read-out: Cav 2.2 Activity % Inh at 30 μM
Protocol: Human Cav2.2 channels were stably expressed in HEK293 cells along with alpha2-delta and beta subunits of voltage-gated calcium channels. […] Calcium influx through Cav2.2 channels is determined using a calcium sensitive fluorescent dye in combination with a fluorescent plate reader. Fluorescent changes were measured with either a VIPR (Aurora Instruments) or FLIPR (Molecular Devices) plate reader. • 1. […] Read cell plate on VIPR instrument, Excitation=480 nm, Emission=535 nm • 9. […]
Quantity Name: inhibition at 30 µM (%)

{"columns": ["Line Notation", "Measurement Target", "Value Units", "inhibition at 30 µM"],
 "data": [
  ["Cc1cc(CNC(=O)C2(NC(=O)c3cc(C(C)(C)C)nc(C(C)(C)C)c3)CCCCC2)nn1C", "Human Cav2.2 channels (Homo sapiens, UniProt Q00975)", "%", 88.6],
  ["COc1c(C(C)(C)C)cc(C(=O)NC2(C(=O)NCc3cc(C)n(C)n3)CCCCC2)cc1C(C)(C)C", "Human Cav2.2 channels (Homo sapiens, UniProt Q00975)", "%", 93.2],
  ["COc1c(C(C)(C)C)cc(C(=O)NC2(C(=O)N3CCN(Cc4ccccc4)CC3)CCCCC2)cc1C(C)(C)C", "Human Cav2.2 channels (Homo sapiens, UniProt Q00975)", "%", 100],
  ["COc1c(C(C)(C)C)cc(C(=O)NC2(C(=O)N3CCOCC3)CCCCC2)cc1C(C)(C)C", "Human Cav2.2 channels (Homo sapiens, UniProt Q00975)", "%", 90.5],
  ["CC(C)(C#N)c1ccc(C(=O)NC2(C(=O)NCc3cccc(C(F)(F)F)c3)Cc3ccccc3C2)cc1", "Human Cav2.2 channels (Homo sapiens, UniProt Q00975)", "%", 100],
  ["COc1c(C(C)(C)C)cc(CNC2(C(=O)NCc3ccccc3)CCCCC2)cc1C(C)(C)C", "Human Cav2.2 channels (Homo sapiens, UniProt Q00975)", "%", 97.4],
  ["Cc1cc(CNC(=O)C2(NC(=O)c3cc(C4CC4)cc(C4CC4)c3)CCCCC2)nn1C", "Human Cav2.2 channels (Homo sapiens, UniProt Q00975)", "%", 66],
  ["CC(C)(C)NC(=O)C(C)(C)c1cc(C(=O)NC2(C(=O)NCc3ccccc3)CCCCC2)cc(C(C)(C)C(=O)NC(C)(C)C)c1", "Human Cav2.2 channels (Homo sapiens, UniProt Q00975)", "%", 82],
  ["COc1ccc(CNC(=O)C2(NC(=O)c3cc(C(C)(C)C)c(OC)c(C(C)(C)C)c3)CC2)cc1", "Human Cav2.2 channels (Homo sapiens, UniProt Q00975)", "%", 101],
  ["COc1ccc(CNC(=O)C2(NC(=O)c3cc(C(C)(C)C)nc(C(C)(C)C)c3)CCOCC2)cc1", "Human Cav2.2 channels (Homo sapiens, UniProt Q00975)", "%", 93],
  ["CC(C)(C)c1cc(C(=O)NC2(C(=O)NCc3nccs3)CCCCC2)cc(C(C)(C)C)n1", "Human Cav2.2 channels (Homo sapiens, UniProt Q00975)", "%", 104],
  ["CC(C)(C)c1cc(C(=O)NC2(C(=O)NCc3ccccc3)CCNCC2)cc(C(C)(C)C)n1", "Human Cav2.2 channels (Homo sapiens, UniProt Q00975)", "%", 104],
  ["CC(C)(C)c1cc(C(=O)NC2(C(=O)NCc3ccccc3)CCCC2)cc(C(C)(C)C)c1", "Human Cav2.2 channels (Homo sapiens, UniProt Q00975)", "%", 96.4],
  ["CC(C)(C)c1cc(C(=O)NC2(C(=O)NCc3ccc(S(C)(=O)=O)cc3)CCOCC2)cc(C(C)(C)C)c1O", "Human Cav2.2 channels (Homo sapiens, UniProt Q00975)", "%", 81.9]
]}
